Data origin, for the record: patent US20150045553A1

- experiment: Rat in vivo pharmacokinetic study (distribution among plasma, brain and cerebrospinal fluid)
- protocol conditions: cerebrospinal fluid/plasma, SD rats, single oral administration, 3 mg/kg, an hour after the administration, read-out: cerebrospinal fluid/plasma movement ratio
measured property: Kp at 1 h

cpd smiles	result
OCc1cn(-c2ccc(OC3CCN(C4CCC4)CC3)cc2)nn1	0.5

[P] CNC(=O)c1cn(-c2ccc(OC3CCN(C4CCC4)CC3)cc2)nn1
[Q] O=C(c1cn(-c2ccc(OC3CCN(C4CCC4)CC3)cc2)nn1)N1CCCC1
Between the two listed entries P and Q , which has its Kp at 1 h at the higher number? Which one? Tell me its label.
P
(P: 0.7, Q: 0.2)

###

- experiment: Rat in vivo pharmacokinetic study (distribution among plasma, brain and cerebrospinal fluid)
- protocol conditions: cerebrospinal fluid, SD rats, single oral administration, 3 mg/kg, an hour after the administration, read-out: cerebrospinal fluid concentration
measured property: concentration at 1 h (ng/mL)

molecule	concentration at 1 h [ng/mL]
CNC(=O)c1cn(-c2ccc(OC3CCN(C4CCC4)CC3)cc2)nn1 [Compound No. 19]	134

[A] O=C(c1cn(-c2ccc(OC3CCN(C4CCC4)CC3)cc2)nn1)N1CCCC1 [Compound No. 8]
[B] OCc1cn(-c2ccc(OC3CCN(C4CCC4)CC3)cc2)nn1 [Compound No. 22]
Which record would sort first by descending concentration at 1 h, A or B ? // caller expects the label of the chosen entry
B

###

- experiment: Rat in vivo pharmacokinetic study (distribution among plasma, brain and cerebrospinal fluid)
- protocol conditions: brain/plasma, SD rats, single oral administration, 3 mg/kg, an hour after the administration, read-out: brain/plasma movement ratio
measured property: Kp at 1 h

compound	measured property	result
O=C(c1cn(-c2ccc(OC3CCN(C4CCC4)CC3)cc2)nn1)N1CCCC1 [Compound No. 8]	Kp at 1 h	3

[1] CNC(=O)c1cn(-c2ccc(OC3CCN(C4CCC4)CC3)cc2)nn1 [Compound No. 19]
[2] OCc1cn(-c2ccc(OC3CCN(C4CCC4)CC3)cc2)nn1 [Compound No. 22]
In terms of reported Kp at 1 h, does 1 or 2 have the smaller number? Give the chosen item's label as your response.
2
(2: 1.5, 1: 4.4)
